# Test system: HT-1080 cells
# experiment-summary: HT-1080 cell viability assay (ferroptosis induced by RSL3, Cell Titer-Glo)
# Type: cell-based
# experimental-conditions: Homo sapiens, HT-1080, 20 h, ferroptosis inducer RSL3, 20 hours, ferroptosis inhibitory activity, Table 2
property-name: EC50

# input Given CC(C)(C)c1ccc(NC2CCC(NC(N)=O)CC2)cc1 (stereo not drawn) [Compound 266A] , state its recorded EC50.
# output 100 to 1000 nM

# input What does the data say about its EC50? Entry: CC1CN(c2ccc(NC3C[C@H]4CC(N)C[C@H]4C3)cc2F)CC(C)O1 (stereo partly drawn)
# output 0.1 to 100 nM

# input Can you look up the measured EC50 of NC1CCC(Nc2ccc(N3CCC(C(F)(F)F)CC3)c(Cl)c2)CC1 (stereo not drawn) for me?
# output 0.1 to 100 nM

# input What value of EC50 has been recorded for this entry: `CC(C)(C)c1ccc(NC[C@H]2CC[C@H](N)CC2)cc1`
# output 0.1 to 100 nM

# input Entry CC1(C)CCN(c2ccc(NC3CCC(N)CC3)cc2)CC1 (stereo not drawn) : reported EC50 = ?
# output 0.1 to 100 nM

# input Reported EC50, molecule CN(C)C1CCC(NC(=O)C2CCC(Nc3ccc(C4CCC(C)(C)CC4)cc3)CC2)CC1 (single isomer, unassigned) [Compound 76A] : ____
# output 0.1 to 100 nM

# input Reported EC50, molecule Cc1nc(N2CC3COCC3C2)ccc1NC1CC2(CC(N)C2)C1 (stereo not drawn) : ____
# output 0.1 to 100 nM
